B1: Peroxisome proliferator-activated receptor delta, residues 71 to 145; numbered along this chain, Q03181 (parent)
chain: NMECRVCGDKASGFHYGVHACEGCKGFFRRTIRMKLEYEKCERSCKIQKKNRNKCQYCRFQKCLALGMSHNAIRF

Variants of: B1
Assay: abundance fitness (aPCA) (normalised: wild type 0, dead -1); higher = more abundant; growth selection in yeast, the domain comes from the species named
Details: Homo sapiens
variants and their reported abundance fitness
Simply state the number, no unit and no words.

Take a look at these entries with their results.
1. E3C	-0.278
2. C45S	-0.743
3. K25R	-0.003
4. E42Q	-0.104
5. N71K	-0.127

**Q:** # get_value(readout='abundance fitness', item= G8W )
**A:** -0.812

**Q:** And then C55H , what is it?
**A:** -0.441

**Q:** And then I73F , what is it?
**A:** -0.094

**Q:** And then K35H , what is it?
**A:** -0.169

**Q:** And then K50Q , what is it?
**A:** 0.077

**Q:** And then C4I , what is it?
**A:** -1.14

**Q:** And then D9T , what is it?
**A:** -0.327
